# measurementTarget: human muscarinic acetylcholine M3 receptor (Homo sapiens)
# Construct: expressed in transfected cells; host or cells: CHO-K1 (Chinese Hamster Ovary) cell membranes
# Sequence (P20309 whole entry): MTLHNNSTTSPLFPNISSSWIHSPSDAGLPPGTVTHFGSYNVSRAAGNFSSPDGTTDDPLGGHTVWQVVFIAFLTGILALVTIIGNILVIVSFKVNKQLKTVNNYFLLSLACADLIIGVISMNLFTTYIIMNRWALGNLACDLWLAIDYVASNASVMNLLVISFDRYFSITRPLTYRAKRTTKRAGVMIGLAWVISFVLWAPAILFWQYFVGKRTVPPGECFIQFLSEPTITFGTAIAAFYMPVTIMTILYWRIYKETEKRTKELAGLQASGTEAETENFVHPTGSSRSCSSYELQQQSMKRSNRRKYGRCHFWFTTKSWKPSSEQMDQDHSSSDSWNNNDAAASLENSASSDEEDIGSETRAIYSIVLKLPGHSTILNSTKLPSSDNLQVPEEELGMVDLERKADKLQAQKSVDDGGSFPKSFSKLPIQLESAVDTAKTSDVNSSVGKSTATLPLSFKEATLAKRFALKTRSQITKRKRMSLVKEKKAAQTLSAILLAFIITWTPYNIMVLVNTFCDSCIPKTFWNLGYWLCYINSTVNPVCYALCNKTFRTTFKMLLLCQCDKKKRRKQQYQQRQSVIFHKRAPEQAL
# procedureText: Muscarinic 3 receptor binding assay ([3H]NMS competition, SPA), single concentration 1 μM
# conditionContext: 1 μM compound; % inhibition specific [3H]-NMS binding
metricName: inhibition at 1 µM (%)
Dear colleague, please return just the value in %, with no unit written.

Query: Respond only with inhibition at 1 µM recorded for O=C1COc2c(CCNCCN(C(=O)CCOCCc3cccc(CN4CCC5(CC4)CN(C(=O)c4cccc6[nH]ccc46)CCO5)c3)C3CCCCC3)ccc(O)c2N1 [Example 168]
Response: 92

Query: Respond only with inhibition at 1 µM recorded for O=C1COc2c(CCNCCN(C(=O)CCOCCc3cccc(CN4CCC5(CC4)CN(C(=O)[C@@H](O)C4CCCCC4)CCO5)c3)C3CCCCC3)ccc(O)c2N1 [Example 129]
Response: 99

Query: Respond only with inhibition at 1 µM recorded for O=C1COc2c(CCNCCN(C(=O)CCOCCc3cccc(CN4CCC5(CC4)CN(C(=O)c4cccc6cccnc46)CCO5)c3)C3CCCCC3)ccc(O)c2N1 [Example 100]
Response: 96

Query: Respond only with inhibition at 1 µM recorded for O=C1COc2c(CCNCCN(C(=O)CCOCCc3cccc(CN4CCC5(CC4)CN(C(=O)c4cccc(Cl)c4)CCO5)c3)C3CCCCC3)ccc(O)c2N1 [Example 164]
Response: 99

Query: Respond only with inhibition at 1 µM recorded for O=C1COc2c(CCNCCN(C(=O)CCOCCc3cccc(CN4CCC5(CC4)CN(C(=O)c4ccc(-n6ccnc6)cc4)CCO5)c3)C3CCCCC3)ccc(O)c2N1 [Example 135]
Response: 66

Query: Respond only with inhibition at 1 µM recorded for O=C1COc2c(CCNCCN(C(=O)CCOCCc3cccc(CN4CCC5(CC4)CN(C(=O)c4cccs4)CCO5)c3)C3CCCCC3)ccc(O)c2N1 [Example 153]
Response: 101
